A collection of compounds and their measured Δ G6P
# Test system: oxidative phosphorylation at site I (ETPH particles)
# protocol_details: Assay of CoQ and analogs for oxidative phosphorylation at site I with ETPH particles
# Type: biochemical
# Set-up: unit not given here
# condition_set: CoQ or analog 0.12 nM (footnote 0.12 mM)
assay_metric: Δ G6P

CCCCCCCCCCC1=C(C)C(=O)C(OC)=C(OC)C1=O [Decyl] : 0.039
COC1=C(OC)C(=O)C(CC=C(C)C)=C(C)C1=O [Q1, reference compound] : 0.046
COC1=C(OC)C(=O)C(C/C=C(\C)CCC=C(C)C)=C(C)C1=O [Q2, reference compound] : 0.045
CCCCCC1=C(C)C(=O)C(OC)=C(OC)C1=O [Pentyl] : 0.036
